# TARGET_ENTITY: YAP-TEAD interaction (human YAP2-His6 (50-114) / human TEAD1-GST (209-426)) (Homo sapiens)
# Construct: GST-TEAD1 (209-426) produced in E. coli; made in house; host or cells: E. coli
# Sequence (P28347 209-426): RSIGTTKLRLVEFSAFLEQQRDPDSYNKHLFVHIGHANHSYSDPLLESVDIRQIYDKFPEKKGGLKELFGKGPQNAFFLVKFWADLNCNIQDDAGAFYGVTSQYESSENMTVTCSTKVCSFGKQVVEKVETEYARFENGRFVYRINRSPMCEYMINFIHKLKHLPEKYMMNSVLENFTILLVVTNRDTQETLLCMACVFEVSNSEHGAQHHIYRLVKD
# EXPERIMENTAL_DETAILS: YAP-TEAD AlphaLISA assay
# Assay type: binding
# SETUP_CONDITIONS: 2 h; YAP-TEAD AlphaLISA, maximal % inhibition; read-out: Max Act.
MEASUREMENT_KIND: Emax (%)

Fill in: Emax of COCCN(/N=C/c1ccc(O)c(OC)c1)C1=NS(=O)(=O)c2c(OC)cccc21 [Example 24] is ___
92

Fill in: Emax of COc1cc(/C=N/N(C2=NS(=O)(=O)c3ccccc32)C(C)C)ccc1O [Example 36] is ___
77

Fill in: Emax of COc1cc(/C=N/N(C)C2=NS(=O)(=O)c3c(C)cc(F)cc32)ccc1O [Example 20] is ___
95

Fill in: Emax of COCCCN(/N=C/c1ccc(O)c(OC)c1)C1=NS(=O)(=O)c2ccccc21 [Example 10] is ___
92

Fill in: Emax of COCCN(/N=C/c1ccc(O)c(OC)c1)C1=NS(=O)(=O)c2c(OC)cc(C)cc21 [Example 30] is ___
90

Fill in: Emax of COc1cc(/C=N/N(CCO)C2=NS(=O)(=O)c3c(OC)cc(C)cc32)ccc1O [Example 29] is ___
91

Fill in: Emax of COc1cc(/C=N/N(CCO)C2=NS(=O)(=O)c3ccccc32)ccc1O [Example 2] is ___
93

Fill in: Emax of COc1cc(/C=N/N(CC(=O)NCCO)C2=NS(=O)(=O)c3ccccc32)ccc1O [Example 9] is ___
96

Fill in: Emax of COc1ccc2c(c1)C(N(CCN1CCOCC1)/N=C/c1ccc(O)c(OC)c1)=NS2(=O)=O [Example 12] is ___
95

Value source: patent US10414739B2
